- assayed target: UDP-3-O-(3-hydroxymyristoyl)glucosamine N-acyltransferase (Escherichia coli (strain K12), UniProt P21645)
- Sequence (P21645 whole entry): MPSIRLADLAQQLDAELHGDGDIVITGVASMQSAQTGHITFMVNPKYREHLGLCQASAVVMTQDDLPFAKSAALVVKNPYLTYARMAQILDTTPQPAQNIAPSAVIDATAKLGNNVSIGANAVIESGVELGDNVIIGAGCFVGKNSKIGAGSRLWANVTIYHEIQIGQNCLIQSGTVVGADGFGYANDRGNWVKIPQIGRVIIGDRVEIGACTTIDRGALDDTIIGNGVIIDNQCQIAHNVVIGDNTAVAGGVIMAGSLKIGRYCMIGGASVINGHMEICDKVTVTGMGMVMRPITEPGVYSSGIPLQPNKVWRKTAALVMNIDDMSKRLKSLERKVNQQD
- assay overview: Fluorescence Polarization Assay
- test parameters: pH 8
Where a SMILES comes first, the peptide text is derived from it. [ ]: non-standard residue; d: D form. The star is where a group is joined. X1 = O=C(O)c1cc(NC(=S)*)ccc1-c1c2ccc(=O)cc-2oc2cc(O)ccc12; Ala(3-Me-diazirin-3-yl) = CC1(C[C@H](N)C(=O)O)N=N1; βAla = NCCC(=O)O
Each item that follows carries a reported log10 Kd.
Hey, these are logged values: log10 of Kd, nM being the unit before logging.

Answered examples (5):
>  <compound>
CSCC[C@H](NC(=O)[C@H](Cc1ccc(O)cc1)NC(=O)[C@H](CC(C)C)NC(=O)[C@H](CC(N)=O)NC(=O)[C@@H](NC(=O)CCNC(=S)Nc1ccc(-c2c3ccc(=O)cc-3oc3cc(O)ccc23)c(C(=O)O)c1)[C@@H](C)O)C(=O)N[C@@H](CC(C)C)C(=O)N1CCC[C@H]1C(=O)N[C@@H](CCCCN)C(=O)N[C@@H](Cc1c[nH]c2ccccc12)C(=O)N[C@@H](CC(=O)O)C(=O)N[C@@H](CC1(C)N=N1)C(=O)N1CCC[C@H]1C(N)=O ({X1-βAla}-TNLYMLPKWD[Ala(3-Me-diazirin-3-yl)]P-NH2)

>  <quantity kind>
log10 Kd

>  <numeric result>
2.90

$$$$
>  <compound>
CC[C@H](C)[C@H](NC(=O)[C@H](CC(=O)O)NC(=O)[C@H](Cc1c[nH]c2ccccc12)NC(=O)[C@H](CCCCN)NC(=O)[C@@H]1CCCN1C(=O)[C@H](CC(C)C)NC(=O)[C@H](CCSC)NC(=O)[C@H](Cc1ccc(O)cc1)NC(=O)[C@H](CC1(C)N=N1)NC(=O)[C@H](CC(N)=O)NC(=O)[C@@H](NC(=O)CCNC(=S)Nc1ccc(-c2c3ccc(=O)cc-3oc3cc(O)ccc23)c(C(=O)O)c1)[C@@H](C)O)C(=O)N1CCC[C@H]1C(N)=O ({X1-βAla}-TN[Ala(3-Me-diazirin-3-yl)]YMLPKWDIP-NH2)

>  <quantity kind>
log10 Kd

>  <numeric result>
3.32

$$$$
>  <compound>
CSCC[C@H](NC(=O)[C@H](Cc1ccc(O)cc1)NC(=O)[C@H](CC(C)C)NC(=O)[C@H](CC(N)=O)NC(=O)[C@@H](NC(=O)CCNC(=S)Nc1ccc(-c2c3ccc(=O)cc-3oc3cc(O)ccc23)c(C(=O)O)c1)[C@@H](C)O)C(=O)N[C@@H](CC(C)C)C(N)=O [FITC-(βa)TNLYML-CONH2] ({X1-βAla}-TNLYML-NH2)

>  <quantity kind>
log10 Kd

>  <numeric result>
4.34

$$$$
>  <compound>
CC[C@H](C)[C@H](NC(=O)[C@H](CC(=O)O)NC(=O)[C@H](Cc1c[nH]c2ccccc12)NC(=O)[C@H](CCCCN)NC(=O)[C@@H]1CCCN1C(=O)[C@H](CC(C)C)NC(=O)[C@H](CCSC)NC(=O)[C@H](Cc1ccc(O)cc1)NC(=O)[C@H](CC(C)C)NC(=O)[C@H](CC(N)=O)NC(=O)[C@@H](NC(=O)CCNC(=S)Nc1ccc(-c2c3ccc(=O)cc-3oc3cc(O)ccc23)c(C(=O)O)c1)[C@@H](C)O)C(=O)N1CCC[C@H]1C(N)=O [FITC-(βa)TNLYMLPKWDIP-CONH2] ({X1-βAla}-TNLYMLPKWDIP-NH2)

>  <quantity kind>
log10 Kd

>  <numeric result>
2.78

$$$$
>  <compound>
CC[C@H](C)[C@H](NC(=O)[C@H](CC(=O)O)NC(=O)[C@H](Cc1c[nH]c2ccccc12)NC(=O)[C@H](CCCCN)NC(=O)[C@@H]1CCCN1C(=O)[C@H](CC1(C)N=N1)NC(=O)[C@H](CCSC)NC(=O)[C@H](Cc1ccc(O)cc1)NC(=O)[C@H](CC(C)C)NC(=O)[C@H](CC(N)=O)NC(=O)[C@@H](NC(=O)CCNC(=S)Nc1ccc(-c2c3ccc(=O)cc-3oc3cc(O)ccc23)c(C(=O)O)c1)[C@@H](C)O)C(=O)N1CCC[C@H]1C(N)=O ({X1-βAla}-TNLYM[Ala(3-Me-diazirin-3-yl)]PKWDIP-NH2)

>  <quantity kind>
log10 Kd

>  <numeric result>
3.04

$$$$

Reported log10 Kd for CSCC[C@H](NC(=O)[C@H](Cc1ccc(O)cc1)NC(=O)[C@H](CC(C)C)NC(=O)[C@H](CC(N)=O)NC(=O)[C@@H](NC(=O)CCNC(=S)Nc1ccc(-c2c3ccc(=O)cc-3oc3cc(O)ccc23)c(C(=O)O)c1)[C@@H](C)O)C(=O)N[C@@H](CC(C)C)C(=O)O [FITC-(βa)TNLYML-COOH] ({X1-βAla}-TNLYML-OH) : what is it? 4.56
